Target: T1, human PRLR (Biacore antigen) (human, UniProt P16471 25-234, limits assumed)
T1 construct: The construct injected over captured antibody is not described (a soluble form is likely); also called huPRLR
T1 sequence: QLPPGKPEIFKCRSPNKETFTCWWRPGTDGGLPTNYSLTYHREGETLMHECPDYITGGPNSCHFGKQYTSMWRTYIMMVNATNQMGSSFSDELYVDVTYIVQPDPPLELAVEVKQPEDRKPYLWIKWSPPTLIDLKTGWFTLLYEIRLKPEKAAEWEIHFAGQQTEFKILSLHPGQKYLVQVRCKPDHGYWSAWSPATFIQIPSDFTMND
Assay: SPR simultaneous binding; PRLR held by surface mAb Ab30
readout: solution mAb binding, % of PRLR binding

binder	measurement
chAb6 (antibody, human IgG1, kappa, V domains shown, chimeric, murine variable and human G1/kappa constant regions) VH: QVQLQQPGAELVMPGSSVKLSCKASGYTFTTYWMHWVKQRPGQGLEWIGEIDPSDSYSNYNQKFKDKATLTVDKSSSTAYMQLSSLTSEDSAVYYCARNGGLGPAWFSYWGQGTLVTVSA VL: DIVMTQSQKFMSTTVGDRVSITCKASQYVGTAVAWYQQKPGQSPKLLIYSASNRYTGVPDRFTDSGSGTDFTLTISNLQSEDLADYFCQQYSSYPWTFGGGTKLEIKT	-1%
LFA102 (antibody, human IgG1, kappa, V domains shown, humanized IgG1 kappa comparator (WO 2008022295)) VH: EVQLVESGGGLVQPGGSLRLSCAVSGFTFSSYGMSWVRQAPGKRLEWVATVSSGGTYTYYPDSVKGRFTISRDNSKNTLYLQMNSLRAEDTAMYYCARHRGNYYATYYYAMDYWGQGTLVTVSS VL: DIVLTQSPDSLAVSLGERATINCKASKSVSTSGYTYMHWYQQKPGQPPKLLIYLASNRESGVPDRFSGSGSGTDFTLTISPVQAEDVATYYCQHSGELPPSFGQGTKLEIKR	35%
chAb7 (antibody, human IgG1, kappa, V domains shown, chimeric, murine variable and human G1/kappa constant regions) VH: QVQLQQPGAELVMPGTSVKLSCKASGYTFTSYWIHWVKQRPGQGLEWIGEIDPSDSYTNYNQKFKGKATLTVDRSSSTAYMQLSSLTSEDSAVYYCGRSFFTNWFAYWGQGTLVTVSA VL: DVVMTQTPLSLPVSLGDQASISCRSSQSLVHSNGNTYLHWYLQKPGQSPKLLIYKVSNRFSGVPDRFSGSGSGTDFTLKINRVEAEDLGVYFCSQSTHVPFTFGSGTKLEIKT	-1%
Ab49 (antibody, human IgG1, kappa, V domains shown, humanized from Ab8; G1; also called Ab3 HC.1a and Ab3 LC.1b) VH: EVQLVQSGAEVKKPGASVKVSCKASGYTFTDYNIHWVRQAPGQGLEWIGYIYPNNDGTGYNQKFKSRATLTVDNSTSTAYMELRSLRSDDTAVYYCARGDGNYVGDMDYWGQGTTVTVSS VL: DIQMTQSPSSLSASVGDRVTITCRASENIYSYLAWYQQKPGKAPKLLVYNAKTLAEGVPSRFSGSGSGTDFTLTISSLQPEDFATYYCQHHYATPFTFGQGTKLEIKR	-1%
chAb5 (antibody, human IgG1, kappa, V domains shown, chimeric, murine variable and human G1/kappa constant regions) VH: QVQLQQPGAELVRPGTSVKLSCKASGYTFTSFWMHWVKQRPGQGLEWIGVIDPSDTYTNYNQKFKGKATLTVDTSSSTAYMQLSSLTSEDSAVYYCARGDYSNWFTYWGQGTLVTVSA VL: DVVMTQTPLSLPVSLGDQASISCRSSQRLVHSNGNTYLHWYLQKPGQSPKLLIYKVSNRFSGVPDRFSGSGSGTDFTLKISRVEAEDLGVYFCSQSTHVPWTFGGGTKLEIKT	-1%

Consider now this further binder.
### Prompt Any idea what solution mAb binding, % of PRLR binding was measured for Ab30 (antibody, human IgG1, kappa, V domains shown, humanized from Ab5; G1; also called Ab2 HC.1a and Ab2 LC.1a) VH: EVQLVQSGAEVKKPGSSVKVSCKASGYTFTSFWMHWVRQAPGQGLEWIGVIDPSDTYTNYNQKFKGRATLTVDESSSTAYMELSSLRSEDTAVYYCARGDYSNWFTYWGQGTLVTVSS VL: DVVMTQTPLSLSVTPGQPASISCRSSQRLVHSNGNTYLHWYLQKPGQSPQLLIYKVSNRFSGVPDRFSGSGSGTDFTLKISRVEAEDVGVYFCSQSTHVPWTFGGGTKVEIKR ?
### Response -1%

Where these numbers come from: patent US20170022281A1
